Reported POD vs vehicle values for the following compounds.
- System: 30145 (donor line of iPSC-derived cardiomyocytes)
- MEASUREMENT DESCRIPTION: POD (EC05) for increase in beat frequency (positive chronotrope) vs vehicle; higher = less potent (higher point of departure)
- CONDITIONS USED: exposure time: 90 min

Sample answers from the record:
COC(=O)C(F)(F)C(F)(F)OC(F)(C(F)(F)F)C(F)(F)OC(F)=C(F)F (stereo not given) [Methyl_perfluoro(3-(1-ethenyloxypropan-2-yloxy)propanoate)]	> 100 µM
O=C(O)C(F)(F)C(F)(F)C(F)(F)C(F)(F)C(F)(F)C(F)(F)C(F)(F)F	> 100 µM
OCC(F)(F)C(F)(F)C(F)(F)C(F)F	> 100 µM
NC(=O)C(F)(F)C(F)(F)C(F)(F)C(F)(F)C(N)=O [Octafluoroadipamide]	> 100 µM
O=C(O)CCC(F)(F)C(F)(F)C(F)(F)F	> 100 µM

Input O=C(O)C(F)(F)C(F)(F)C(F)(F)C(F)(F)C(F)(F)C(F)(F)C(F)(F)C(F)(F)Cl . Output POD vs vehicle: > 100 µM

The compound listed as O=C(CC(=O)C(F)(F)C(F)(F)F)C(F)(F)F shows POD vs vehicle equal to > 100 µM

Looking up O=C(O)C(F)(F)C(F)(F)C(F)(F)C(F)(F)C(F)(F)F , I found its POD vs vehicle recorded as > 100 µM

* * *

// reported POD vs vehicle for each item listed
- Test system: 1368 (donor line of iPSC-derived cardiomyocytes)
- MEASUREMENT DESCRIPTION: POD (EC95) for loss of peak frequency (asystole) vs vehicle; higher = less potent (higher point of departure)
- CONDITIONS USED: exposure time: 90 min

The compound listed as O=C(O)C(F)(F)C(F)(F)C(F)(F)OC(F)(C(F)(F)F)C(F)(F)F shows POD vs vehicle equal to > 100 µM

For O=C(O)C(F)(F)C(F)(F)C(F)(F)C(F)(F)C(F)(F)C(F)(F)C(F)(F)C(F)(F)Cl the compound record lists POD vs vehicle as > 100 µM

Entry O=C(O)C(F)(F)OC(F)(F)C(F)(F)OC(F)(F)C(F)(F)OC(F)(F)C(F)(F)C(F)(F)C(F)(F)F — recorded POD vs vehicle = > 100 µM

* * *

POD vs vehicle values, listed per item
- Test system: 20084 (donor line of iPSC-derived cardiomyocytes)
- MEASUREMENT DESCRIPTION: POD (EC05) for increase in beat frequency (positive chronotrope) vs vehicle; higher = less potent (higher point of departure)
- CONDITIONS USED: exposure time: 90 min

O=C(O)C(F)(F)C(F)(F)OC(F)(F)F	> 100 µM
NC(=O)C(F)(F)C(F)(F)C(F)(F)C(F)F	> 100 µM

With those in mind, consider the next compound.
Entry O=C(O)C(F)(F)C(F)(F)C(F)(F)C(F)(F)C(F)(F)C(F)(F)C(F)(F)F , POD vs vehicle reported as > 100 µM

* * *

- System: 1392 (donor line of iPSC-derived cardiomyocytes)
- MEASUREMENT DESCRIPTION: POD (EC10) for decrease in total cell number (cytotoxicity) vs vehicle; higher = less potent (higher point of departure)
- CONDITIONS USED: exposure time: 90 min
QUANTITY MEASURED: POD vs vehicle

O=C(O)CCC(F)(F)C(F)(F)C(F)(F)F [3:3 Fluorotelomer carboxylic acid]	> 100 µM
CN(CCO)S(=O)(=O)C(F)(F)C(F)(F)C(F)(F)C(F)(F)C(F)(F)C(F)(F)C(F)(F)C(F)(F)F [N-Methyl-N-(2-hydroxyethyl)perfluorooctanesulfonamide]	> 100 µM
O=C(O)C(F)(F)C(F)(F)C(F)(F)C(F)(F)C(=O)O [Octafluoroadipic_acid]	54.6 µM
O=C(O)C(F)(F)C(F)(F)C(F)(F)C(F)(F)C(F)(F)C(F)(F)C(F)(F)C(F)(F)C(F)(F)C(F)(F)F [Perfluoroundecanoic_acid]	> 100 µM
O=P(O)(O)CCC(F)(F)C(F)(F)C(F)(F)C(F)(F)C(F)(F)C(F)(F)C(F)(F)C(F)(F)F [((Perfluorooctyl)ethyl)phosphonic_acid]	> 100 µM

Continue with the next compound.
Lab note: compound O=S(=O)([O-])C(F)(F)C(F)(F)C(F)(F)C(F)(F)F.[K+] [Potassium_perfluorobutanesulfonate] tested on 1392; recorded POD vs vehicle was > 100 µM
